biological target: yeast Gal4-DNA binding domain fused to the ligand binding domain of human RORγ (Homo sapiens); construct: host or cells: HEK293t; experiment: RORγ Reporter Assay (Gal4); assay type: cell-based; settings: RORγ Reporter Assay (Gal4) at 1 μM; values given as lower bounds of ranges
Sequence (P51449 269-508 limits assumed): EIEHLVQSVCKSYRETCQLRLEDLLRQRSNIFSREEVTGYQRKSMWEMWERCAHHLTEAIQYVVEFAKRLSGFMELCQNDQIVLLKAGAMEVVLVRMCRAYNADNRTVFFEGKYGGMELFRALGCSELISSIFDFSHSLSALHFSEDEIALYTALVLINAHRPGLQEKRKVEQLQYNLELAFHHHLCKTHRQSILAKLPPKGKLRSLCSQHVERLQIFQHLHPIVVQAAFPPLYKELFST
Listed next: entries and their corresponding Gal4 activity range @ 1 μM (% inhibition).

// solved cases for Gal4 activity range @ 1 μM (% inhibition) follow
[
  {
    "compound": "OCc1ccc(CNc2ncnc(N3CCC[C@@H]3c3ccc(C(F)(F)F)cc3)c2F)cc1",
    "result": ">80 % inhibition"
  },
  {
    "compound": "NC(=O)Cc1ccc(CNc2ncnc(N3CCCC3c3ccccc3)c2F)cc1 (centres unmarked)",
    "result": ">50 % inhibition"
  },
  {
    "compound": "COC1(CNc2ncnc(N3CCCC3c3ccc(C(F)(F)F)cc3)c2F)CCOCC1 (centres unmarked)",
    "result": ">80 % inhibition"
  }
]

## Input Requested read-out: Gal4 activity range @ 1 μM (% inhibition). Entry: Cc1ccc(C2CCCN2c2ncnc(NCc3ccc(CC(N)=O)cc3)c2F)o1 (centres unmarked)
## Output >80 % inhibition

## Input Requested read-out: Gal4 activity range @ 1 μM (% inhibition). Entry: O=S(=O)(CC(F)(F)F)N[C@H]1CC[C@H](CNc2ncnc(N3CCOC[C@@H]3c3ccc(OC(F)(F)F)cc3)c2F)CC1
## Output >20 % inhibition

## Input Requested read-out: Gal4 activity range @ 1 μM (% inhibition). Entry: Fc1c(NCc2ccc(C(F)(F)F)nc2)ncnc1N1CCCC1c1ccc(C(F)(F)F)cc1 (centres unmarked)
## Output >50 % inhibition

## Input Requested read-out: Gal4 activity range @ 1 μM (% inhibition). Entry: CS(=O)(=O)N[C@H]1CC[C@H](CNc2ncnc(N3CCOC[C@@H]3c3ccc(OC(F)(F)F)cc3)c2F)CC1
## Output >80 % inhibition

## Input Requested read-out: Gal4 activity range @ 1 μM (% inhibition). Entry: COc1cccc(C2CCCN2c2ncnc(NCc3ccc(CC(N)=O)cc3)c2F)c1 (centres unmarked)
## Output >80 % inhibition

## Input Requested read-out: Gal4 activity range @ 1 μM (% inhibition). Entry: Cc1ccc(CNc2ncnc(N3CC(C)CC3c3ccc(C(F)(F)F)cc3)c2F)cn1 (centres unmarked)
## Output >50 % inhibition

## Input Requested read-out: Gal4 activity range @ 1 μM (% inhibition). Entry: OCCC1(CNc2ncnc(N3CCOC[C@@H]3c3ccc(C(F)(F)F)cc3)c2F)CCOCC1
## Output >80 % inhibition

## Input Requested read-out: Gal4 activity range @ 1 μM (% inhibition). Entry: Fc1c(NC[C@H]2CC[C@H](Cc3nnn[nH]3)CC2)ncnc1N1CCC[C@@H]1c1ccc(C(F)(F)F)cc1
## Output >80 % inhibition

## Input Requested read-out: Gal4 activity range @ 1 μM (% inhibition). Entry: COc1ccc(C2CCCN2c2ncnc(NCc3ccc(C)nc3)c2F)cc1 (centres unmarked)
## Output >20 % inhibition

## Input Requested read-out: Gal4 activity range @ 1 μM (% inhibition). Entry: OCCC1(CNc2ncnc(N3CCC[C@@H]3c3ccc(C(F)(F)F)cc3)c2F)CCOCC1
## Output >80 % inhibition

## Input Requested read-out: Gal4 activity range @ 1 μM (% inhibition). Entry: CNC(=O)C1(CNc2ncnc(N3CCOC[C@@H]3c3ccc(C(F)(F)F)cc3)c2F)CCOCC1
## Output >20 % inhibition

## Input Requested read-out: Gal4 activity range @ 1 μM (% inhibition). Entry: CC1(CNc2ncnc(N3CCC[C@@H]3c3ccc(C(F)(F)F)cc3)c2F)CCCS1 (some centres unmarked)
## Output >80 % inhibition

## Input Requested read-out: Gal4 activity range @ 1 μM (% inhibition). Entry: CNC(=O)[C@@H](CC(C)(C)C)N(C)c1ncnc(N2CCCC2c2ccc(C(F)(F)F)cc2)c1F (some centres unmarked)
## Output >0 % inhibition

## Input Requested read-out: Gal4 activity range @ 1 μM (% inhibition). Entry: Fc1c(NC[C@H]2CC[C@H](Cc3nnn[nH]3)CC2)ncnc1N1CCOC[C@@H]1c1ccc(C(F)(F)F)cc1
## Output >80 % inhibition

## Input Requested read-out: Gal4 activity range @ 1 μM (% inhibition). Entry: Cn1cc(CNc2ncnc(N3CCCC3c3ccc(C(F)(F)F)cc3)c2F)cn1 (centres unmarked)
## Output >20 % inhibition

## Input Requested read-out: Gal4 activity range @ 1 μM (% inhibition). Entry: O=S1(=O)CCOC(CNc2ncnc(N3CCC[C@@H]3c3ccc(C(F)(F)F)cc3)c2F)C1 (some centres unmarked)
## Output >50 % inhibition

## Input Requested read-out: Gal4 activity range @ 1 μM (% inhibition). Entry: COc1ccc(CN(C)c2ncnc(N3CCCC3c3ccc(C(F)(F)F)cc3)c2F)cn1 (centres unmarked)
## Output >50 % inhibition

## Input Requested read-out: Gal4 activity range @ 1 μM (% inhibition). Entry: CCOc1ccc(C2CCCN2c2ncnc(NCc3ccc(CC(N)=O)cc3)c2F)cc1 (centres unmarked)
## Output >80 % inhibition

## Input Requested read-out: Gal4 activity range @ 1 μM (% inhibition). Entry: NC(=O)[C@@H](CC1CCOCC1)Nc1ncnc(N2CCCC2c2ccc(C(F)(F)F)cc2)c1F (some centres unmarked)
## Output >80 % inhibition

## Input Requested read-out: Gal4 activity range @ 1 μM (% inhibition). Entry: O=C(O)Cc1ccc(CNc2ncnc(N3CCOCC3c3ccc(OC(F)(F)F)cc3)c2F)cc1 (centres unmarked)
## Output >80 % inhibition

## Input Requested read-out: Gal4 activity range @ 1 μM (% inhibition). Entry: OC1CCCCC1CNc1ncnc(N2CCC[C@@H]2c2ccc(C(F)(F)F)cc2)c1F (some centres unmarked)
## Output >80 % inhibition

## Input Requested read-out: Gal4 activity range @ 1 μM (% inhibition). Entry: O=S1(=O)CCC(O)(CNc2ncnc(N3CCOC[C@@H]3c3ccc(C(F)(F)F)cc3)c2F)CC1
## Output >50 % inhibition

## Input Requested read-out: Gal4 activity range @ 1 μM (% inhibition). Entry: CS(=O)(=O)CC1(CNc2ncnc(N3CCOC[C@@H]3c3ccc(C(F)(F)F)cc3)c2F)CCOCC1
## Output >80 % inhibition

## Input Requested read-out: Gal4 activity range @ 1 μM (% inhibition). Entry: CC(C)(C)C[C@@H](Nc1ncnc(N2CCC[C@@H]2c2ccc(C(F)(F)F)cc2)c1F)C(N)=O (single isomer, unassigned)
## Output >80 % inhibition

## Input Requested read-out: Gal4 activity range @ 1 μM (% inhibition). Entry: O=C(O)Cc1ccc(CNc2ncnc(N3CCOCC3c3ccccc3)c2F)cc1 (centres unmarked)
## Output >20 % inhibition

## Input Requested read-out: Gal4 activity range @ 1 μM (% inhibition). Entry: NC(=O)Cc1ccc(CNc2ncnc(N3CCCC3c3ccc4c(c3)OCO4)c2F)cc1 (centres unmarked)
## Output >80 % inhibition

## Input Requested read-out: Gal4 activity range @ 1 μM (% inhibition). Entry: O=C(O)Cc1ccc(Cn2ccc3c(N4CCCC4c4ccc(C(F)(F)F)cc4)ncnc32)cc1 (centres unmarked)
## Output >80 % inhibition

## Input Requested read-out: Gal4 activity range @ 1 μM (% inhibition). Entry: NC(=O)Cc1ccc(CNc2ncnc(N3CCC3c3ccc(C(F)(F)F)cc3)c2F)cc1 (centres unmarked)
## Output >50 % inhibition

## Input Requested read-out: Gal4 activity range @ 1 μM (% inhibition). Entry: O=C(O)Cc1ccc(CNc2ncnc(N3CCOCC3c3ccccc3)c2F)s1 (centres unmarked)
## Output >0 % inhibition

Where these numbers come from: patent US10689383B2
